- Test system: Escherichia coli (E. coli) strain CFT073 ATCC 700928
- Type: cell-based
- experimental_setup: ATCC 700928, 22 h
*1 amine or outer side, *2 acyl side, *3 side chain or, on linkers, in order; H or OH if unused. Where a SMILES comes first, the peptide text is derived from it. [ ]: non-standard residue; d: D form. The star is where a group is joined. X2 = CCCCCC[C@@H](OC[C@@H](C)N[*:1])[C@@H](C)C(=O)[*:2]; X9 = CCCCCC(C)[C@@H](OC[C@@H](C)N[*:1])C(C)C(=O)[*:2]; X14 = CCCCCC[C@@H](OCCN[*:1])[C@@H](C)C(=O)[*:2]; Cyclobutyl(trans-3-NH2) = N[C@H]1C[C@H](*)C1; Gly(cHept) = N[C@H](C(=O)O)C1CCCCCC1; aThr = C[C@H](O)[C@H](N)C(=O)O; NMeL = CN[C@@H](CC(C)C)C(=O)O; Chg = N[C@H](C(=O)O)C1CCCCC1; NMeNva = CCC[C@H](NC)C(=O)O; Dap = NC[C@H](N)C(=O)O
Binary call on MIC with cut-off 6 µM: strictly below means true (1), and equality or higher means false (0).

Inquiry: Here's an entry: CCCCCC[C@H]1OC(=O)CNC(=O)[C@H]([C@H](C)O)NC(=O)[C@H](CN)NC(=O)[C@H](C2CCCCC2)NC(=O)[C@H](CC)N(C)C(=O)[C@@H]1C . Is its MIC below 6 µM?
Reply text: false (0)

Inquiry: Determine if CCCCCC(C)[C@H]1OC[C@@H](C)NC(=O)[C@H]([C@H](C)O)NC(=O)[C@H](CN)NC(=O)[C@H](C2CCCCC2)NC(=O)[C@H](CC(C)C)N(C)C(=O)C1C (stereo partly shown) [Example 153] (cyclo([Chg][Dap][aThr][X9][NMeL])) shows MIC strictly lower than 6 µM.
Reply text: true (1)

Inquiry: Is MIC strictly under 6 µM for the entry CCCCCC[C@H]1OCCNC(=O)[C@H](CO[C@H]2C[C@H](N)C2)NC(=O)[C@H](CN)NC(=O)[C@H](C2CCCCCC2)NC(=O)[C@H](CCC)N(C)C(=O)[C@@H]1C [Example 80] (cyclo([Dap]S(Cyclobutyl(trans-3-NH2))[X14][NMeNva][Gly(cHept)])) ?
Reply text: false (0)

Inquiry: # check: MIC < 6 µM for CCCCCC[C@H]1OC[C@@H](C)NC(=O)[C@H](CN)NC(=O)[C@H](CN)NC(=O)[C@H](C2CCCCCC2)NC(=O)[C@H](CC(C)C)N(C)C(=O)[C@@H]1C [Example 151] (cyclo([Dap][Dap][X2][NMeL][Gly(cHept)]))
Reply text: false (0)

Inquiry: Dear reviewer, please state whether CCCCCC[C@H]1OC(=O)CNC(=O)[C@H]([C@H](C)O)NC(=O)[C@H](CN)NC(=O)[C@H](C2CCCCC2)NC(=O)[C@H](CC(C)C)N(C)C(=O)[C@@H]1Cc1ccc(C)cc1 has MIC strictly beneath 6 µM.
Reply text: true (1)

Inquiry: Is the reported MIC for CC(C)C[C@H]1C(=O)N[C@@H](C2CCCCC2)C(=O)N[C@@H](CN)C(=O)N[C@@H]([C@H](C)O)C(=O)NCC(=O)O[C@H](CCCCCCC(C)(C)O)[C@@H](C)C(=O)N1C strictly below 6 µM?
Reply text: false (0)

Inquiry: Would you kindly verify if MIC of CCCCCC[C@H]1OC(=O)CNC(=O)[C@H](CNC(=O)CCN)NC(=O)[C@H](CN)NC(=O)[C@H](C2CCCCC2)NC(=O)[C@H](CC(C)C)N(C)C(=O)[C@@H]1C is strictly less than 6 µM?
Reply text: false (0)
